Record form. Attribute: relative growth. Fill in for each entry.
- System: Pseudomonas 6 (Pseudomonas sp.)
- experiment: relative growth (AUC of 72 h growth curve relative to DMSO control, dAUC) (ratio); higher = more growth (less inhibition), active = hit call of the paper
- testParameters: 20 µM
Numbers only.

Some compounds with recorded relative growth:
> print(dat)
                                   compound  experimentalendpoint  recordedmeasurement
1  CC1(C)C(C(=O)OC(C#N)c2cccc(Oc3ccccc3)c2)C1(C)C (stereo not drawn)       relative growth                 1.01
2               CNC(=O)/C=C(\C)OP(=O)(OC)OC       relative growth                0.989

Okay, now this compound:
Measured relative growth of "CCC(=O)Nc1ccc(Cl)c(Cl)c1" : 1.02

---

- Test system: Rhizobium 1 (Rhizobium herbae)
- experiment: relative growth (AUC of 72 h growth curve relative to DMSO control, dAUC) (ratio); higher = more growth (less inhibition), active = hit call of the paper
- testParameters: 20 µM
Respond with True for relative growth values of 1 and above, False for values below.

molecule	labelClass
CCCCCCCCCCCCNC(=N)N	False
CCOc1ccc(C(C)(C)COCc2cccc(Oc3ccccc3)c2)cc1	False
CCC(=O)Nc1ccc(Cl)c(Cl)c1	False
Cc1c(COC(=O)[C@@H]2[C@H](/C=C(\Cl)C(F)(F)F)C2(C)C)cccc1-c1ccccc1 (racemic)	False

Prompt: Would you say "CS(=O)(=O)c1cc(C(F)(F)F)ccc1C(=O)c1cnoc1C1CC1" shows relative growth at minimum 1?
Completion: True

Prompt: Would you say "Nc1c([N+](=O)[O-])ccc(Oc2ccccc2)c1Cl" shows relative growth at minimum 1?
Completion: False

Prompt: Would you say "O=C(O)CNCP(=O)(O)O" shows relative growth at minimum 1?
Completion: True

Prompt: Would you say "COCC(=O)N(c1c(C)cccc1C)[C@H](C)C(=O)OC" shows relative growth at minimum 1?
Completion: True

Prompt: Would you say CC[C@H](C)C1O[C@]2(C=C[C@@H]1C)C[C@@H]1C[C@@H](C/C=C(\C)[C@@H](O[C@H]3C[C@H](OC)[C@@H](O[C@H]4C[C@H](OC)[C@H](NC)[C@H](C)O4)[C@H](C)O3)[C@@H](C)/C=C/C=C3\CO[C@@H]4[C@H](O)C(C)=C[C@@H](C(=O)O1)[C@]34O)O2 (some centres not stated) shows relative growth at minimum 1?
Completion: False

Prompt: Would you say "COc1cccc(C(=O)NN(C(=O)c2cc(C)cc(C)c2)C(C)(C)C)c1C" shows relative growth at minimum 1?
Completion: False

Prompt: Would you say "CN/C(=N\[N+](=O)[O-])NCc1cnc(Cl)s1" shows relative growth at minimum 1?
Completion: False

Prompt: Would you say CC1(C)[C@H](/C=C(\Cl)C(F)(F)F)[C@@H]1C(=O)OC(C#N)c1cccc(Oc2ccccc2)c1 (some centres not stated) shows relative growth at minimum 1?
Completion: True

---

- System: Flavobacterium 2 (Flavobacterium succinicans)
- experiment: relative growth (AUC of 72 h growth curve relative to DMSO control, dAUC) (ratio); higher = more growth (less inhibition), active = hit call of the paper
- testParameters: 20 µM
Record form. Attribute: relative growth. Fill in for each entry.
Give bare numbers.

> print(dat)
                                compound  experimentalendpoint  recordedmeasurement
1                 N#Cc1cc(Br)c(O)c(Br)c1       relative growth                0.951
2  O=C(Nc1ccccc1-c1ccc(Cl)cc1)c1cccnc1Cl       relative growth                    1
3             CC1(C)CON(Cc2ccccc2Cl)C1=O       relative growth                0.941
4            COP(=S)(OC)Oc1ccc(SC)c(C)c1       relative growth                0.998

Provide the reported relative growth of each entry below, same order.
1. CNC(=O)CSP(=S)(OC)OC
2. O=C1c2ccccc2C(=O)N1SC(Cl)(Cl)Cl
3. COP(=O)(NC(C)=O)SC (configuration not stated)

Completion:
[0.966, 0.983, 0.982]

---

- Test system: Community 9
- experiment: relative growth (AUC of 72 h growth curve relative to DMSO control, dAUC) (ratio); higher = more growth (less inhibition), active = hit call of the paper;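 active = growth AUC significantly below the DMSO wells by Dunnett test; inactive = the rest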
- testParameters: 20 µM
Classes to choose from: TRUE (active), FALSE (inactive)

The examples below pair each entry with its known result.
compound	measuredOn	labelClass
O=C(NC(=O)c1c(F)cccc1F)Nc1ccc(Cl)cc1	Community 9	FALSE
CC[C@H](C)C1O[C@]2(C=C[C@@H]1C)C[C@@H]1C[C@@H](C/C=C(\C)[C@@H](O[C@H]3C[C@H](OC)[C@@H](O[C@H]4C[C@H](OC)[C@H](NC)[C@H](C)O4)[C@H](C)O3)[C@@H](C)/C=C/C=C3\CO[C@@H]4[C@H](O)C(C)=C[C@@H](C(=O)O1)[C@]34O)O2 (some centres not stated)	Community 9	TRUE
N#Cc1c(Cl)c(Cl)c(Cl)c(C#N)c1Cl	Community 9	FALSE
CN1COCN(Cc2cnc(Cl)s2)/C1=N\[N+](=O)[O-]	Community 9	FALSE
COCC(=O)N(c1c(C)cccc1C)C(C)C(=O)OC (configuration not stated)	Community 9	FALSE
COc1ncc(F)c2nc(S(=O)(=O)Nc3c(F)cccc3F)nn12	Community 9	FALSE

Consider the record given below.
Prompt: Dear all, I need the recorded test outcome for "CCCCN(CCCC)SN(C)C(=O)Oc1cccc2c1OC(C)(C)C2" , thank you.
Completion: FALSE

---

- Test system: Community 6
- experiment: relative growth (AUC of 72 h growth curve relative to DMSO control, dAUC) (ratio); higher = more growth (less inhibition), active = hit call of the paper
- testParameters: 20 µM
Record form. Attribute: relative growth. Fill in for each entry.
One number for each entry.

> print(dat)
                          structurenotation  recordedmeasurement
1         N#Cc1c[nH]cc1-c1cccc2c1OC(F)(F)O2                 0.93
2               Cc1cc(C2CC2)nc(Nc2ccccc2)n1                    1
3  CCc1cc(C)cc(CC)c1-c1c(OC(=O)C(C)(C)C)n2n(c1=O)CCOCC2                0.906
4  COc1cccc(C(=O)NN(C(=O)c2cc(C)cc(C)c2)C(C)(C)C)c1C                 0.89
5               CNC(=O)/C=C(\C)OP(=O)(OC)OC                0.973

Okay, now this compound:
Measured relative growth of "C[N+]1(C)CCCCC1" : 1.07

---

Record form. Attribute: relative growth. Fill in for each entry.
- System: Community 10
- experiment: relative growth (AUC of 72 h growth curve relative to DMSO control, dAUC) (ratio); higher = more growth (less inhibition), active = hit call of the paper
- testParameters: 20 µM

Some compounds with recorded relative growth:
compound	experimentalEndpoint	recordedMeasurement
COC(=O)N(OC)c1ccccc1COc1ccn(-c2ccc(Cl)cc2)n1	relative growth	0.903 (inactive)
CC[C@H](C)C1O[C@]2(C=C[C@@H]1C)C[C@@H]1C[C@@H](C/C=C(\C)[C@@H](O[C@H]3C[C@H](OC)[C@@H](O[C@H]4C[C@H](OC)[C@H](NC)[C@H](C)O4)[C@H](C)O3)[C@@H](C)/C=C/C=C3\CO[C@@H]4[C@H](O)C(C)=C[C@@H](C(=O)O1)[C@]34O)O2 (stereo not given in full)	relative growth	0.9 (inactive)

Provide the reported relative growth of each entry below, same order.
1. CC1COC(Cn2cncn2)(c2ccc(Oc3ccc(Cl)cc3)cc2Cl)O1 (stereo not given)
2. Cc1ccc(/N=C/N(C)/C=N/c2ccc(C)cc2C)c(C)c1
3. O=C(O)c1nc(Cl)ccc1Cl

Completion:
1: 0.896 (inactive); 2: 0.922 (inactive); 3: 0.892 (inactive)

---

- Tested on: Arthrobacter 2 (Arthrobacter humicola)
- experiment: relative growth (AUC of 72 h growth curve relative to DMSO control, dAUC) (ratio); higher = more growth (less inhibition), active = hit call of the paper
- testParameters: 20 µM
experimentalEndpoint: relative growth

> print(dat)
                                   molecule                              measuredon  recordedmeasurement
1  CCC(CC)Nc1c([N+](=O)[O-])cc(C)c(C)c1[N+](=O)[O-]  Arthrobacter 2 (Arthrobacter humicola)     0.884 (inactive)

Provide the reported relative growth of each entry below, same order.
1. CC(Oc1ccc(Oc2nc3ccc(Cl)cc3o2)cc1)C(=O)O (stereo unspecified)
2. CC(C)CC(C)c1sccc1NC(=O)c1cn(C)nc1C(F)(F)F (stereo unspecified)
3. Cc1cccc2sc3nncn3c12
4. CCNC(=O)NC(=O)/C(C#N)=N/OC
5. COc1ccc(C(=CC(=O)N2CCOCC2)c2ccc(Cl)cc2)cc1OC (mixture of isomers)
6. CCCN(CCOc1c(Cl)cc(Cl)cc1Cl)C(=O)n1ccnc1
7. CN1COCN(Cc2cnc(Cl)s2)/C1=N\[N+](=O)[O-]

Completion:
["0.93 (inactive)", "0.885 (inactive)", "0.932 (inactive)", "0.894 (inactive)", "0.983 (inactive)", "0.209 (active)", "1.02 (inactive)"]
